- System tested: ABCC4 (Homo sapiens, UniProt O15439)
- Sequence (O15439 1-1325): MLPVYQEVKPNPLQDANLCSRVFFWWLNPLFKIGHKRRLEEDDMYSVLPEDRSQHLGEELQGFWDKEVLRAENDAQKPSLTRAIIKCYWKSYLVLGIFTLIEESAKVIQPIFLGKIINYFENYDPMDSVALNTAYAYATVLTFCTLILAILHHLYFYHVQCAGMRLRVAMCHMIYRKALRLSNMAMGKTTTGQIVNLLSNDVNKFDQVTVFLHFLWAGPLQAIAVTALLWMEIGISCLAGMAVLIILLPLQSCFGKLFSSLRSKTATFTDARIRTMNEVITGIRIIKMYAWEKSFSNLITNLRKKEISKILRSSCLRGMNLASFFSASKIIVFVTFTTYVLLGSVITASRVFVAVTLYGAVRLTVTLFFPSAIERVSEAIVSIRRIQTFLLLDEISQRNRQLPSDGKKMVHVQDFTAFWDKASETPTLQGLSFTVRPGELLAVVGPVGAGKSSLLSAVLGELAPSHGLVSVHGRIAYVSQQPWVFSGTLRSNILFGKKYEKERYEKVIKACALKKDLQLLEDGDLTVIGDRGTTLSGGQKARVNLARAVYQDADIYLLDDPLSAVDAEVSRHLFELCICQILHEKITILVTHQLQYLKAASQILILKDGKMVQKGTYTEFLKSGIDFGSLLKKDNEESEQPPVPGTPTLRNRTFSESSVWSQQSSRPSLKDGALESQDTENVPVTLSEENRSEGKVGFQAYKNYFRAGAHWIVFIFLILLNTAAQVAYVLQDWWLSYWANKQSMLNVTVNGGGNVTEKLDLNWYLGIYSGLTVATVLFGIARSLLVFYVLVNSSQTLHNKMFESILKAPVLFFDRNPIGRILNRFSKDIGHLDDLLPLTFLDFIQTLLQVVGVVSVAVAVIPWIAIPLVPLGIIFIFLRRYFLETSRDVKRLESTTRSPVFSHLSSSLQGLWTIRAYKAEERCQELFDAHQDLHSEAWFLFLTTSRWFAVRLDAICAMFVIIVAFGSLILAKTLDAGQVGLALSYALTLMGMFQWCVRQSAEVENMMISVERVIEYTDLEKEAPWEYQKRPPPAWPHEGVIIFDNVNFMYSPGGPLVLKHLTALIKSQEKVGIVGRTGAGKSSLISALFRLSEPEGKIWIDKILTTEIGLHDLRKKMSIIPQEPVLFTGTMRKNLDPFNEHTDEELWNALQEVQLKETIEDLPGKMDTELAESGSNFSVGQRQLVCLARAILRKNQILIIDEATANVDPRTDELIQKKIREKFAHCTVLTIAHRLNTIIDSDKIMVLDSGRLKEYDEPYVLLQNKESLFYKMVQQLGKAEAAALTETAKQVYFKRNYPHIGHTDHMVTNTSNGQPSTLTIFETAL
- Test summary: biochemical
- Assay type: biochemical
- Measurement setup: ABCC4 Ki, 37°C; cAMP-efflux, inside-out vesicles
Recorded metric: Ki (µM)

[[record]]
smiles_representation = "Cc1[nH]c(=O)c(C#N)cc1-c1ccncc1"
recorded_metric = "Ki"
unit_abbreviation = "µM"
value_reported = 35.7


###

- System tested: ABCC4 (Homo sapiens)
- Test summary: biochemical
- Format: biochemical
- Measurement setup: ABCC4 Ki, 28°C; cAMP-efflux, inside-out vesicles
pKi: −log10 of the molar value.
Recorded metric: pKi

[[record]]
compound = "Cc1[nH]c(=O)c(C#N)cc1-c1ccncc1 [Milrinone]"
system_tested = "ABCC4 (Homo sapiens)"
value_reported = 4.64

